Catalogue of binders with associated pKd
Biological target: equine FcRn (large alpha subunit p51) / equine beta-2-microglobulin complex, biotinylated (equine) (UniProt P30441)
Assay: SPR (Biacore), pH 6
pKd is a log-scale quantity: -log10 of the concentration expressed in molar.

Record excerpt, results attached:
- equine IgG4 Y436H (antibody, part only; not given: variable domains, not shown: another chain or arm of the molecule) constant: ASTTAPKVFPLASHSAATSGSTVALGCLVSSYFPEPVTVSWNSGALTSGVHTFPSVLQSSGLYSLSSMVTVPASSLKSQTYICNVAHPASSTKVDKKIVIKECNGGCPAECLQVGPSVFIFPPKPKDVLMISRTPTVTCVVVDVGHDFPDVQFNWYVDGVETHTATTEPKQEQFNSTYRVVSVLPIQHKDWLSGKEFKCKVNNKALPAPVERTISKPTGQPREPQVYVLAPHRDELSKNKVSVTCLVKDFYPTDIDIEWKSNGQPEPETKYSTTPAQLDSDGSYFLYSKLTVETNRWQQGTTFTCAVMHEALHNHHTEKSVSKSPGK: 7.21
- equine IgG4 D312F (antibody, part only; not given: variable domains, not shown: another chain or arm of the molecule) constant: ASTTAPKVFPLASHSAATSGSTVALGCLVSSYFPEPVTVSWNSGALTSGVHTFPSVLQSSGLYSLSSMVTVPASSLKSQTYICNVAHPASSTKVDKKIVIKECNGGCPAECLQVGPSVFIFPPKPKDVLMISRTPTVTCVVVDVGHDFPDVQFNWYVDGVETHTATTEPKQEQFNSTYRVVSVLPIQHKFWLSGKEFKCKVNNKALPAPVERTISKPTGQPREPQVYVLAPHRDELSKNKVSVTCLVKDFYPTDIDIEWKSNGQPEPETKYSTTPAQLDSDGSYFLYSKLTVETNRWQQGTTFTCAVMHEALHNHYTEKSVSKSPGK: 7.64
- equine IgG4 Y436C (antibody, part only; not given: Variable domains, not shown: another chain or arm of the molecule) constant: ASTTAPKVFPLASHSAATSGSTVALGCLVSSYFPEPVTVSWNSGALTSGVHTFPSVLQSSGLYSLSSMVTVPASSLKSQTYICNVAHPASSTKVDKKIVIKECNGGCPAECLQVGPSVFIFPPKPKDVLMISRTPTVTCVVVDVGHDFPDVQFNWYVDGVETHTATTEPKQEQFNSTYRVVSVLPIQHKDWLSGKEFKCKVNNKALPAPVERTISKPTGQPREPQVYVLAPHRDELSKNKVSVTCLVKDFYPTDIDIEWKSNGQPEPETKYSTTPAQLDSDGSYFLYSKLTVETNRWQQGTTFTCAVMHEALHNHCTEKSVSKSPGK: 7.24

Okay, next one:
stdin: Quick one: give measured pKd for equine IgG4 A426E (antibody, part only; not given: variable domains, not shown: another chain or arm of the molecule) constant: ASTTAPKVFPLASHSAATSGSTVALGCLVSSYFPEPVTVSWNSGALTSGVHTFPSVLQSSGLYSLSSMVTVPASSLKSQTYICNVAHPASSTKVDKKIVIKECNGGCPAECLQVGPSVFIFPPKPKDVLMISRTPTVTCVVVDVGHDFPDVQFNWYVDGVETHTATTEPKQEQFNSTYRVVSVLPIQHKDWLSGKEFKCKVNNKALPAPVERTISKPTGQPREPQVYVLAPHRDELSKNKVSVTCLVKDFYPTDIDIEWKSNGQPEPETKYSTTPAQLDSDGSYFLYSKLTVETNRWQQGTTFTCEVMHEALHNHYTEKSVSKSPGK
stdout: 7.74

meta.source: patent US20260070987A1
